- studySystem: GMPPNP-loaded KRAS G12C (Homo sapiens, UniProt P01116, G12C)
- Sequence (P01116 1-188 isoform P01116-2 G12C): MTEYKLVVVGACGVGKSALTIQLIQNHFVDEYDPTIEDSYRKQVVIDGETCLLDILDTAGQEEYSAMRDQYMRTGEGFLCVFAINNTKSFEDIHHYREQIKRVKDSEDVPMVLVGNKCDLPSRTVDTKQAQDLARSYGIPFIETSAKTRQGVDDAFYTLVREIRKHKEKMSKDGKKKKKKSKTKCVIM
- procedureText: KRAS G12C RAF Disruption Assay (HTRF)
- conditionNotes: recombinant GMPPNP-loaded KRAS G12C (5 nM), 20 min with compound; GST-RAF1 RBD (9 nM); HTRF signal; read-out: KRASG12C RAF Disruption Assay (IC50)
quantityKind: pIC50
The value called pIC50 is obtained by taking minus log10 of the concentration in mol/L.

{"columns": ["molecule", "observedResult"],
 "data": [
  ["N#CC[C@H]1CN(c2nc(OC[C@@]34CCCN3C[C@H](F)C4)nc3c(F)c(-c4cc(O)ccc4C(F)(F)F)ncc23)CCN1C(=O)/C(F)=C/c1ccccn1", 7.47],
  ["CN1CCC[C@H]1COc1nc(N2CCN(C(=O)/C(F)=C/c3ccccn3)[C@@H](CC#N)C2)c2cnc(-c3cccc4ccccc34)c(F)c2n1 [Compound 19B]", 6.57]
]}

Turning to the following molecule.
Using the record for "C#Cc1c(F)ccc2cc(O)cc(-c3ncc4c(N5C[C@H]6CC[C@@H](C5)N6C(=O)/C(F)=C/c5ccncn5)nc(OC[C@@]56CCCN5C[C@H](F)C6)nc4c3F)c12" , report its pIC50.
7.60

* * *

IC50 values for the compounds below.
- studySystem: GMPPNP-loaded KRAS G12C (Homo sapiens, UniProt P01116, G12C)
- procedureText: KRAS G12C RAF Disruption Assay (HTRF)
- conditionNotes: recombinant GMPPNP-loaded KRAS G12C (5 nM), 20 min with compound; GST-RAF1 RBD (9 nM); HTRF signal; read-out: KRASG12C RAF Disruption Assay (IC50)
I'd appreciate it if you wrote the number followed by its unit.

{"columns": ["structureAsSmiles", "quantityKind", "observedResult"],
 "data": [
  ["C#Cc1cccc2cccc(-c3ncc4c(N5CCN(C(=O)/C(F)=C/c6ccccn6)C[C@H]5C)nc(OC[C@@]56CCCN5C[C@H](F)C6)nc4c3F)c12", "IC50", "57 nM"],
  ["N#CC[C@H]1CN(c2nc(OC[C@@]34CCCN3C[C@H](F)C4)nc3c(F)c(-c4cc(F)ccc4C(F)(F)F)ncc23)CCN1C(=O)/C(F)=C/c1nccs1", "IC50", "460 nM"],
  ["C#Cc1cccc2cccc(-c3ncc4c(N(C)C5CCN(C(=O)/C(F)=C/c6nccs6)CC5)nc(OC[C@@]56CCCN5C[C@H](F)C6)nc4c3F)c12", "IC50", "16800 nM"],
  ["Cn1ncc2cccc(-c3ncc4c(N5CCN(C(=O)/C(F)=C/c6ccccn6)[C@@H](CC#N)C5)nc(OC[C@@]56CCCN5C[C@H](F)C6)nc4c3F)c21", "IC50", "360 nM"]
]}

Using the record for "N#CC[C@H]1CN(c2nc(OC[C@@]34CCCN3C[C@H](F)C4)nc3c(F)c(-c4ccccc4C(F)(F)F)ncc23)CCN1C(=O)/C(F)=C/c1nccs1" , report its IC50.
76 nM

Using the record for "C#Cc1c(F)ccc2cccc(-c3ncc4c(N(C)[C@@H]5CCN(C(=O)/C(F)=C/c6nccs6)C5)nc(OC[C@@]56CCCN5C[C@H](F)C6)nc4c3F)c12" , report its IC50.
30 nM

* * *

IC50 values for the molecules below.
- studySystem: GMPPNP-loaded KRAS G12C (Homo sapiens, UniProt P01116, G12C)
- procedureText: KRAS G12C RAF Disruption Assay (HTRF)
- conditionNotes: recombinant GMPPNP-loaded KRAS G12C (5 nM), 20 min with compound; GST-RAF1 RBD (9 nM); HTRF signal; read-out: KRASG12C RAF Disruption Assay (IC50)
Provide the reading as a plain figure in nM.

{"columns": ["molecule", "studySystem", "quantityKind", "observedResult"],
 "data": [
  ["C#Cc1cccc2cccc(-c3nc(OC)c4c(N5CCN(C(=O)/C(F)=C/c6nccs6)CC5)nc(OC[C@@]56CCCN5C[C@H](F)C6)nc4c3F)c12", "GMPPNP-loaded KRAS G12C (Homo sapiens, UniProt P01116, G12C)", "IC50", 180]
]}

Using the record for "C#Cc1c(F)ccc2cc(O)cc(-c3ncc4c(N5C[C@@]6(NC(=O)/C(F)=C/c7ccccn7)CC[C@@H]5C6)nc(OC[C@@]56CCCN5C[C@H](F)C6)nc4c3F)c12" , report its IC50.
38

Using the record for "N#Cc1cccc2cccc(-c3ncc4c(N5CCN(C(=O)/C(F)=C/c6ccccn6)CC5)nc(OC[C@@]56CCCN5C[C@H](F)C6)nc4c3F)c12" , report its IC50.
800

Using the record for "C#Cc1cccc2cccc(-c3ncc4c(N5CC6(CCN(C(=O)/C(F)=C/c7ccccn7)CC6)C5)nc(OC[C@@]56CCCN5C[C@H](F)C6)nc4c3F)c12" , report its IC50.
5000

* * *

- studySystem: GMPPNP-loaded KRAS G12C (Homo sapiens, UniProt P01116, G12C)
- procedureText: KRAS G12C RAF Disruption Assay (HTRF)
- conditionNotes: recombinant GMPPNP-loaded KRAS G12C (5 nM), 20 min with compound; GST-RAF1 RBD (9 nM); HTRF signal; read-out: KRASG12C RAF Disruption Assay (IC50)
pIC50 values for the compounds below.
The value called pIC50 is obtained by taking minus log10 of the concentration in mol/L.

Some solved entries appear below for comparison.
{"columns": ["compound", "studySystem", "pIC50"],
 "data": [
  ["N#CC[C@H]1CN(c2nc(OC[C@@]34CCCN3C[C@H](F)C4)nc3c(F)c(-c4cc(F)ccc4C(F)F)ncc23)CCN1C(=O)/C(F)=C/c1nccs1", "GMPPNP-loaded KRAS G12C (Homo sapiens, UniProt P01116, G12C)", 5.96],
  ["C#Cc1cccc2cccc(-c3ncc4c(N5CCC6(CCN6C(=O)/C(F)=C/c6ccccn6)C5)nc(OC[C@@]56CCCN5C[C@H](F)C6)nc4c3F)c12 (single isomer, unassigned) [Compound 102]", "GMPPNP-loaded KRAS G12C (Homo sapiens, UniProt P01116, G12C)", 7.06]
]}

Turning to the following compound.
Using the record for "C#Cc1ccc(F)c2cccc(-c3ncc4c(N5CCN(C(=O)/C(F)=C/c6ncccn6)CC5)nc(OC[C@@]56CCCN5C[C@H](F)C6)nc4c3F)c12" , report its pIC50.
6.26

* * *

- studySystem: GMPPNP-loaded KRAS G12C (Homo sapiens, UniProt P01116, G12C)
- procedureText: KRAS G12C RAF Disruption Assay (HTRF)
- Type: biochemical
- conditionNotes: recombinant GMPPNP-loaded KRAS G12C (5 nM), 20 min with compound; GST-RAF1 RBD (9 nM); HTRF signal; read-out: KRASG12C RAF Disruption Assay (IC50)
quantityKind: pIC50
The value called pIC50 is obtained by taking minus log10 of the concentration in mol/L.

Some solved entries appear below for comparison.
{"columns": ["compound", "quantityKind", "observedResult"],
 "data": [
  ["N#Cc1c(N)sc2c(F)ccc(-c3ncc4c(N5CCN(C(=O)/C(F)=C/c6ccccn6)CC5)nc(OC[C@@]56CCCN5C[C@H](F)C6)nc4c3F)c12 [Compound 121]", "pIC50", 8.10],
  ["C#Cc1cccc2cccc(-c3ncc4c(N5CCCN(C(=O)/C(F)=C/c6nccs6)CC5)nc(OC[C@@]56CCCN5C[C@H](F)C6)nc4c3F)c12 [Compound 78]", "pIC50", 6.92]
]}

Using the record for C#Cc1cccc2cccc(-c3ncc4c(N(C)[C@@H]5CCN(C(=O)/C(F)=C/c6nccs6)C5)nc(OC[C@@]56CCCN5C[C@H](F)C6)nc4c3F)c12 [Compound 116] , report its pIC50.
7.57

* * *

pIC50 values for the compounds below.
- studySystem: GMPPNP-loaded KRAS G12C (Homo sapiens, UniProt P01116, G12C)
- procedureText: KRAS G12C RAF Disruption Assay (HTRF)
- conditionNotes: recombinant GMPPNP-loaded KRAS G12C (5 nM), 20 min with compound; GST-RAF1 RBD (9 nM); HTRF signal; read-out: KRASG12C RAF Disruption Assay (IC50)
The value called pIC50 is obtained by taking minus log10 of the concentration in mol/L.

Some solved entries appear below for comparison.
{"columns": ["structureAsSmiles", "quantityKind", "observedResult"],
 "data": [
  ["N#CC[C@H]1CN(c2nc(OC[C@@]34CCCN3C[C@H](F)C4)nc3c(F)c(N4CCOc5cccc(F)c54)ncc23)CCN1C(=O)/C(F)=C/c1ccccn1", "pIC50", 6.74],
  ["N#Cc1cccc2[nH]cc(-c3ncc4c(N5CCN(C(=O)/C(F)=C/c6ccccn6)CC5)nc(OC[C@@]56CCCN5C[C@H](F)C6)nc4c3F)c12", "pIC50", 6.05]
]}

Turning to the following compound.
Using the record for "C#Cc1c(F)ccc2cc(O)cc(-c3ncc4c(N5CC6CCC(C5)N6C(=O)/C(F)=C/c5nc(Br)cs5)nc(OC[C@@]56CCCN5C[C@H](F)C6)nc4c3F)c12" , report its pIC50.
6.35
